targetOrTestSystem: T1, activin A (UniProt P08476 311-426)
T1 construct: also called ActA
T1 sequence (looked up): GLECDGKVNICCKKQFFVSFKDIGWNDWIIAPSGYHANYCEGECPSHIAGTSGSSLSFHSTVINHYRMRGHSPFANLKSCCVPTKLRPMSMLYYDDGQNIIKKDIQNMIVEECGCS
assayProtocol: SPR (Biacore); receptor-Fc captured by anti-hFc antibody, ligand injected
metric: koff (s⁻¹)

binder: ActRIIB(P129S, P130R 20-134)-hFc (Fc fusion) GRGEAETRECIYYNANWELERTNQSGLERCEGEQDKRLHCYASWRNSSGTIELVKKGCWLDDFNCYDRQECVATEENPQVYFCCCEGNFCNERFTHLPEAGGPEVTYEPSRTAPTGGGTHTCPPCPAPELLGGPSVFLFPPKPKDTLMISRTPEVTCVVVDVSHEDPEVKFNWYVDGVEVHNAKTKPREEQYNSTYRVVSVLTVLHQDWLNGKEYKCKVSNKALPVPIEKTISKAKGQPREPQVYTLPPSREEMTKNQVSLTCLVKGFYPSDIAVEWESNGQPENNYKTTPPVLDSDGSFFLYSKLTVDKSRWQQGNVFSCSVMHEALHNHYTQKSLSLSPGK
quantityUnit: s⁻¹
measValue: 0.000417
//
binder: ActRIIB(20-134)-hFc (Fc fusion, also called ActRIIB-hFc) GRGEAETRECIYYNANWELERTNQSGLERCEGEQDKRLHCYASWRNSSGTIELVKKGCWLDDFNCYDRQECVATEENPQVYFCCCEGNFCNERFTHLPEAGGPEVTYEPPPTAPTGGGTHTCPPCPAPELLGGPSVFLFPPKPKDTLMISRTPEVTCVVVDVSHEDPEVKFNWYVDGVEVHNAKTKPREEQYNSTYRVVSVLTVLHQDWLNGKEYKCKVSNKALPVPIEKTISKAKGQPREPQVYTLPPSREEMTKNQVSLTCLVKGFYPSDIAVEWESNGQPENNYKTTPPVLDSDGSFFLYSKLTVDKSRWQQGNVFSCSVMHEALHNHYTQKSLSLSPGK
quantityUnit: s⁻¹
measValue: 0.000159
